assay: NCI Yeast Anticancer Drug Screen. Data for the sgs1 mgt1 strain (AID 161);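 also: 0% = growth of cultures given vehicle only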; settings: S. cerevisiae sgs1 mgt1 strain, at 50.0 µM, stronger effect = higher value
About 79,000 compounds went through this panel and 15% of them were active in at least one assay; those are over-represented in the sample as a whole.
Endpoint label: growth inhibition (%)
Numbers only here, please. The scale is %.

Challenge: Kindly indicate its recorded growth inhibition. Item: COc1cc(C(=O)CBr)c(OC)cc1C
Response given: 38

Challenge: Kindly indicate its recorded growth inhibition. Item: O=S(=O)(O)C(c1ccccc1)C(O)c1ccccc1 (centres undefined)
Response given: -14.4

Challenge: Kindly indicate its recorded growth inhibition. Item: O=C1NCC2(CCN(Cc3ccccc3)CC2)N1c1ccccc1
Response given: 2.4

Challenge: Kindly indicate its recorded growth inhibition. Item: COc1ccc(OC)c(NC(=O)c2ccccc2Cl)c1
Response given: 16.7

---

Would you mind telling me the reported growth inhibition of each entry?
assay: NCI Yeast Anticancer Drug Screen. Data for the mlh1 rad18 strain (AID 175); details: S. cerevisiae mlh1 rad18 strain growth inhibition; at 50.0 µM; stronger effect = higher value
Compounds without any hit were thinned out: in the full panel of roughly 79,000, 15% have a hit.
Numbers only here, please. The scale is %.

Challenge: Kindly indicate its recorded growth inhibition. Item: CN(C)c1ccc(-c2c3ccc(Cl)cc3nc3ccc(Br)cc23)cc1
Response given: -8.9

Challenge: Kindly indicate its recorded growth inhibition. Item: CSc1ccc(NC(=O)Nc2cccc(C)c2C)cc1
Response given: 15.3

Challenge: Kindly indicate its recorded growth inhibition. Item: Fc1ccc(-c2nnc(-c3ccccc3)o2)cc1
Response given: 8.15

Challenge: Kindly indicate its recorded growth inhibition. Item: CCC1(CC)SCC(C)(O)NC1=O (centres undefined)
Response given: -4.75

Challenge: Kindly indicate its recorded growth inhibition. Item: [N-]=[N+]=NS(=O)(=O)CCc1ccc(Cl)cc1
Response given: 4.85

Challenge: Kindly indicate its recorded growth inhibition. Item: CC1Cc2c([nH]c(=O)n(C)c2=O)O1 (centres undefined)
Response given: 2.1

Challenge: Kindly indicate its recorded growth inhibition. Item: O=C(O)c1ccc(C(=O)O)c(C(=O)O)c1.[NH-]C1CCCCC1[NH-].[Pd+2]
Response given: 9.65

Challenge: Kindly indicate its recorded growth inhibition. Item: CCOC(=O)c1ccc2c(c1)C(C)(SC)C(=O)N2 (centres undefined)
Response given: -1.35

Challenge: Kindly indicate its recorded growth inhibition. Item: O=C(C[n+]1cccc(CO)c1)c1ccc(-c2ccc(C(=O)C[n+]3cccc(CO)c3)cc2)cc1
Response given: 11.7

---

assay: NCI Yeast Anticancer Drug Screen. Data for the mec2-1 strain (AID 157); conditions: S. cerevisiae mec2-1 strain, at 50.0 µM, stronger effect = higher value
Compounds without any hit were thinned out: in the full panel of roughly 79,000, 15% have a hit. Calls of active or inactive are those of the source. Cut-off read from the data, not from the text of the source: active = growth inhibition above about 70%; inactive = the rest.
Endpoint label: growth inhibition

Challenge: Kindly indicate its recorded growth inhibition. Item: CCOC(=O)C1=C(C)N(NC(=O)OC)C2(N)N(NC(=O)OC)C(C)=C(C(=O)OCC)C12C#N (configuration not stated)
Response given: -3.2% (inactive)

Challenge: Kindly indicate its recorded growth inhibition. Item: O=C(/C(=C\c1ccc(Cl)cc1)c1ccccc1)c1ccccc1
Response given: -29.5% (inactive)

Challenge: Kindly indicate its recorded growth inhibition. Item: COC(=O)c1ccc(Cl)c(Cl)c1Cl
Response given: -7.35% (inactive)

Challenge: Kindly indicate its recorded growth inhibition. Item: CCOC(=O)Nc1nn(-c2ccc3ccccc3n2)c(=O)[nH]1
Response given: 1.65% (inactive)

Challenge: Kindly indicate its recorded growth inhibition. Item: CC1(C)C2CCC13CS(=O)(=O)N1O[C@]13C(=O)O2 (some centres not stated)
Response given: 2.7% (inactive)

Challenge: Kindly indicate its recorded growth inhibition. Item: COc1nc(Cl)cc2nc(Cl)cn12
Response given: 9.35% (inactive)

Challenge: Kindly indicate its recorded growth inhibition. Item: COc1ccc2[nH]cc(CC(NC(C)=O)C(=O)O)c2c1 (configuration not stated)
Response given: -0.9% (inactive)

Challenge: Kindly indicate its recorded growth inhibition. Item: COCCOCc1nc(C#N)c(N)o1
Response given: 2.6% (inactive)

Challenge: Kindly indicate its recorded growth inhibition. Item: N#Cc1cccc(O)c1
Response given: -10.7% (inactive)

Challenge: Kindly indicate its recorded growth inhibition. Item: O=C(c1ccccc1)c1c[nH]c(=O)[nH]c1=O
Response given: 10.2% (inactive)

Challenge: Kindly indicate its recorded growth inhibition. Item: CC(Sc1ncnc2[nH]ncc12)C(N)=O (configuration not stated)
Response given: -16.4% (inactive)

Challenge: Kindly indicate its recorded growth inhibition. Item: O=C1c2cscc2C(=O)c2c(OCc3ccccc3)ccc(OCc3ccccc3)c21
Response given: 6.65% (inactive)

Challenge: Kindly indicate its recorded growth inhibition. Item: COc1ccc(C(=O)/C=C/C(C)=C/C=N/N(C)c2ccccc2)cc1
Response given: 18.4% (inactive)

Challenge: Kindly indicate its recorded growth inhibition. Item: CC(C)=C1C2C=CC1C(CO)C2CO (configuration not stated)
Response given: -4.4% (inactive)

Challenge: Kindly indicate its recorded growth inhibition. Item: O=C(CN1C(=O)c2ccccc2C1=O)C(O)CN1C(=O)c2ccccc2C1=O (configuration not stated)
Response given: 0.6% (inactive)

Challenge: Kindly indicate its recorded growth inhibition. Item: CN(Cc1cnc2nc(N)nc(N)c2n1)c1ccc(C(=O)NC(CCC(=O)OCc2cc3c(cc2Cl)OCO3)C(=O)OCc2cc3c(cc2Cl)OCO3)cc1 (configuration not stated)
Response given: 58.3% (inactive)

Challenge: Kindly indicate its recorded growth inhibition. Item: NC1=NC=NCN1c1ccc(N)cc1
Response given: -2.65% (inactive)

Challenge: Kindly indicate its recorded growth inhibition. Item: O=[N+]([O-])c1ccc(/C(=C/c2ccc(F)cc2)S(=O)(=O)c2ccccc2)o1
Response given: 19.4% (inactive)

Challenge: Kindly indicate its recorded growth inhibition. Item: CC(Cc1ccco1)(C(=O)O)C(=O)O
Response given: 16.3% (inactive)

Challenge: Kindly indicate its recorded growth inhibition. Item: Cc1cc[n+](CC(=O)c2ccc(Br)cc2)cc1
Response given: 12.7% (inactive)

Challenge: Kindly indicate its recorded growth inhibition. Item: O=C(c1ccccc1)c1ccncc1
Response given: -4.4% (inactive)

Challenge: Kindly indicate its recorded growth inhibition. Item: CC(O)C(F)(F)F (configuration not stated)
Response given: -8.8% (inactive)

Challenge: Kindly indicate its recorded growth inhibition. Item: CCCCOC(=O)NC(=O)c1cc2cccc(OC)c2oc1=O
Response given: 21.6% (inactive)

Challenge: Kindly indicate its recorded growth inhibition. Item: CCOC(=O)c1ccc2c(c1)C(C)(SC)C(=O)N2 (configuration not stated)
Response given: 0.7% (inactive)

Challenge: Kindly indicate its recorded growth inhibition. Item: COC(=O)c1cc2ccccc2cc1Nc1ccc2ccccc2c1
Response given: 4.7% (inactive)

Challenge: Kindly indicate its recorded growth inhibition. Item: O=[N+]([O-])c1ccc(Cl)c(/C=C/c2ncccn2)c1
Response given: 10.1% (inactive)

Challenge: Kindly indicate its recorded growth inhibition. Item: O=C(N=Nc1c(O)[nH]c2ccccc12)C(=O)N=Nc1c(O)[nH]c2ccccc12
Response given: 8.35% (inactive)
